Hey, just so you know, these numbers are from ChEMBL document CHEMBL3507680.

# assay-overview: Human HepG2 cell viability assay in 384 well format
# Assay type: toxicity, cell-based
# Parameters: dose 125 nL, time 70.5 hour; concentration not given beside the values
# applied-conditions: HepG2 cells, read-out: Inhibition
readout-label: cytotoxicity at 70.5 h

Examples with answers:
molecule="O=C(CN(CC(O)c1ccc(F)cc1)C1CC1)NC(C1CC1)C1CC1 (centres undefined)" readout_label="cytotoxicity at 70.5 h" observed_measurement=-90.6%
molecule=Cc1nn(C)cc1CN1CCc2nc(-c3cccnc3)nc(O)c2C1 readout_label="cytotoxicity at 70.5 h" observed_measurement=-3.92%

Request: // query cytotoxicity at 70.5 h value for entry O=C(CC1CC1)N1CCN(Cc2ccncc2)c2ncccc2C1
Response: -11.9%

Request: // query cytotoxicity at 70.5 h value for entry COCc1cc(N(C)Cc2cc(C(C)(C)C)n[nH]2)ncn1
Response: -7.91%

Request: // query cytotoxicity at 70.5 h value for entry CN(Cc1cccc(-n2cccn2)c1)C(=O)c1cccc(N(C)C)c1
Response: -10.6%

Request: // query cytotoxicity at 70.5 h value for entry CCC[C@H]1CN(Cc2cscn2)C[C@@H]1NC(=O)C1(COC)CCC1
Response: -4.5%

Request: // query cytotoxicity at 70.5 h value for entry COCc1ccccc1CNc1cc(N2CCCC2CO)ncn1 (centres undefined)
Response: -18.2%

Request: // query cytotoxicity at 70.5 h value for entry CCC[C@H]1CN(Cc2ccc(N(C)C)nc2)C[C@@H]1NS(=O)(=O)CC
Response: -1.04%

----------
The following molecules are listed with their measured cytotoxicity at 70.5 h values.
# assay-overview: Human HepG2 cell viability assay in 384 well format
# Assay type: toxicity, cell-based
# Parameters: dose 125 nL, time 70.5 hour; concentration not given beside the values
# applied-conditions: HepG2 cells, read-out: Inhibition
// note: answer is a bare numeric in %

molecule=CC(C)c1nccc(CN(C)Cc2cccc(-n3cccn3)c2)n1 observed_measurement=-1.47
molecule="Cc1cc(-c2nn(C)c(Cl)c2CN2CCOC(C(=O)O)C2)no1 (configuration not stated)" observed_measurement=13.8
molecule=N#Cc1ccccc1CN1C[C@@H]2CC[C@H](C1)N(CC1CCC1)C2=O observed_measurement=-4.58
molecule=O=C(NCCn1ccnc1-c1cc2n(n1)CCNC2)c1ccc(F)cc1 observed_measurement=2.16
molecule="Cc1cccnc1CNCC1(O)CCCN(CC(C)(C)C)C1=O (configuration not stated)" observed_measurement=-4.51
molecule="Cc1cnn(CC2CN(CCCS(C)(=O)=O)CCO2)c1 (configuration not stated)" observed_measurement=-0.801

Then there is this molecule:
Request: // query cytotoxicity at 70.5 h value for entry Cn1ccnc1SCCNC(=O)CC1CCc2ccccc21 (configuration not stated)
Response: -10.6

----------
The following compounds are listed with their measured cytotoxicity at 70.5 h values.
# assay-overview: Human HepG2 cell viability assay in 384 well format
# Format: toxicity, cell-based
# Parameters: dose 125 nL, time 70.5 hour; concentration not given beside the values
# applied-conditions: HepG2 cells, read-out: Inhibition

Examples with answers:
compound=COc1ccccc1OC1CCN(Cc2cnc(N(C)C)nc2)CC1 readout_label="cytotoxicity at 70.5 h" observed_measurement=-7.45%
compound=O=C(CCc1ccsc1)N1CCC(n2cc(CO)nn2)CC1 readout_label="cytotoxicity at 70.5 h" observed_measurement=-13.1%
compound=COCCN(C)c1ccc(NCc2cscn2)nc1 readout_label="cytotoxicity at 70.5 h" observed_measurement=24.9%
compound="COCCN1CC2(CCCN(C(=O)NCCc3cccs3)C2)CCC1=O (stereo not given)" readout_label="cytotoxicity at 70.5 h" observed_measurement=4.85%
compound=c1cncc(COCc2nnn3c2CN(Cc2ccsc2)CC3)c1 readout_label="cytotoxicity at 70.5 h" observed_measurement=-2.9%

Then there is this compound:
Request: // query cytotoxicity at 70.5 h value for entry CC(c1cccnc1)N(C)C(=O)NCCOc1ccc(C#N)cc1 (stereo not given)
Response: -11.1%

----------
The following molecules are listed with their measured cytotoxicity at 70.5 h values.
# assay-overview: Human HepG2 cell viability assay in 384 well format
# Format: toxicity, cell-based
# Parameters: dose 125 nL, time 70.5 hour; concentration not given beside the values
# applied-conditions: HepG2 cells, read-out: Inhibition
Returns: string containing the numeric result and its unit.

Examples with answers:
molecule=Cc1cc(C(=O)NCCN2CCCCCC2)nn1C(C)(C)C readout_label="cytotoxicity at 70.5 h" observed_measurement=-4.89%
molecule=CNC(=O)c1sccc1N(C)S(=O)(=O)c1ccc(Cl)cc1 readout_label="cytotoxicity at 70.5 h" observed_measurement=19.5%
molecule=CCS(=O)(=O)c1ncc(CN(C)Cc2ccccn2)n1CCOC readout_label="cytotoxicity at 70.5 h" observed_measurement=-5.34%
molecule=N#Cc1ncn(CCC(=O)Nc2cccc(Cl)c2)n1 readout_label="cytotoxicity at 70.5 h" observed_measurement=-8.53%

Request: // query cytotoxicity at 70.5 h value for entry Cc1cccc(NC(=O)N2Cc3c(CN(C)C)nn(C)c3C2)c1
Response: -3.74%

Request: // query cytotoxicity at 70.5 h value for entry Cc1ncsc1C(=O)N1CCCC(c2nccn2Cc2cscn2)C1 (stereo unspecified)
Response: -5.99%

Request: // query cytotoxicity at 70.5 h value for entry CN1C[C@@H]2CC[C@H](C1)N(Cc1ccccc1OCCN1CCOCC1)C2
Response: 1.83%

Request: // query cytotoxicity at 70.5 h value for entry Cc1nc(Nc2cnccn2)cc(C2CCN(CCO)C2)n1 (stereo unspecified)
Response: -9.95%

Request: // query cytotoxicity at 70.5 h value for entry Cc1ccc(C(CNCc2cccn2C)N2CCOCC2)s1 (stereo unspecified)
Response: -4.6%

Request: // query cytotoxicity at 70.5 h value for entry Cc1ncc(CNCC(=O)NC2CCCCC2)n1-c1ccccc1
Response: 9.11%

Request: // query cytotoxicity at 70.5 h value for entry COc1ccc(N2CCC(NC(=O)c3ccc(C#N)cc3)CC2)cc1
Response: -4.31%

Request: // query cytotoxicity at 70.5 h value for entry COCCO[C@H]1CCN(Cc2ccoc2)[C@H]1Cc1cccnc1
Response: -0.128%

Request: // query cytotoxicity at 70.5 h value for entry Cc1nc(-c2ccc(C(=O)O)cc2)cc(C2CCN(C(C)C)C2)n1 (stereo unspecified)
Response: -9.52%

Request: // query cytotoxicity at 70.5 h value for entry Cc1nc(CNC(=O)c2cc(Cn3ccnc3C(C)C)[nH]n2)sc1C
Response: -14.3%

Request: // query cytotoxicity at 70.5 h value for entry CCCOc1ccc2c(c1)OCC(CNC1CCc3ncnn3C1)=C2 (stereo unspecified)
Response: -6.97%

Request: // query cytotoxicity at 70.5 h value for entry Cc1cc(C2CCCN(CC(=O)N3CCCc4ccccc43)C2)n[nH]1 (stereo unspecified)
Response: -9.66%

Request: // query cytotoxicity at 70.5 h value for entry Cc1cc(C)n(C2CN(Cc3noc(-c4ccccc4)n3)C2)n1
Response: -4.76%

Request: // query cytotoxicity at 70.5 h value for entry COc1ccc(OC)c(C2CCN(Cc3nc(C)n4ccccc34)C2)c1 (stereo unspecified)
Response: -12.6%

Request: // query cytotoxicity at 70.5 h value for entry c1cc(CCn2ccc(NC3CCSCC3)n2)ccn1
Response: -3.19%

Request: // query cytotoxicity at 70.5 h value for entry CC(=O)N[C@@H]1CN(Cc2ccco2)C[C@H]1c1ccc(C)o1
Response: -6.07%

Request: // query cytotoxicity at 70.5 h value for entry c1ccc(-n2cnnc2CCCN2CCOCC2)cc1
Response: -2.59%

Request: // query cytotoxicity at 70.5 h value for entry CNc1nc(CNC(=O)Nc2cccc(C)c2Cl)cs1
Response: -1.43%

Request: // query cytotoxicity at 70.5 h value for entry Cc1nc(CN2CC[C@@H](OCC3CC3)[C@@H]2Cc2cccnc2)cs1
Response: -0.893%

Request: // query cytotoxicity at 70.5 h value for entry O=C1CC2(CCCC2)CC(=O)N1Cc1ncccn1
Response: 19.8%

Request: // query cytotoxicity at 70.5 h value for entry CC(C#N)CN(C)C(=O)c1cn(-c2ccc(Br)cc2)cn1 (stereo unspecified)
Response: -1.57%

Request: // query cytotoxicity at 70.5 h value for entry CC(C)(CO)Nc1c(NCc2ccncc2)c(=O)c1=O
Response: -9.44%

----------
The following compounds are listed with their measured cytotoxicity at 70.5 h values.
# assay-overview: Human HepG2 cell viability assay in 384 well format
# Type: toxicity, cell-based
# Parameters: dose 125 nL, time 70.5 hour; concentration not given beside the values
# applied-conditions: HepG2 cells, read-out: Inhibition
// note: answer is a bare numeric in %

compound=c1ccc(CN2CCc3ncnc(-c4cccnc4)c3CC2)nc1 reading_unit=% observed_measurement=-7.48
compound="CCOc1ccc(Cl)c(C(=O)N2CCN(CC(O)CC)CC2)n1 (configuration not stated)" reading_unit=% observed_measurement=-14
compound=Cc1cccc(N(C)S(=O)(=O)c2cc(C(=O)O)cs2)c1 reading_unit=% observed_measurement=14.1
compound=Cc1nc(CN2CCN(Cc3cc4n(n3)CCNC4)CC2)cs1 reading_unit=% observed_measurement=22.5
compound="CCc1nc(CN2CCCC(NCc3cccc(C(N)=O)c3)C2)no1 (configuration not stated)" reading_unit=% observed_measurement=-6.52
compound="CN(C)c1cc(C(=O)N2CCCC(n3cccn3)C2)ccn1 (configuration not stated)" reading_unit=% observed_measurement=-11.4
compound="O=C(N1CCCC1)N1CCn2c(nnc2C2CCCN2)C1 (configuration not stated)" reading_unit=% observed_measurement=-9.61
compound=CC(C)CN1C(=O)CO[C@@H]2CN(C(=O)C3CCOCC3)C[C@H]21 reading_unit=% observed_measurement=-4.41
compound="Cc1nc(C)n(CCC(=O)NCC2CCCOC2)n1 (configuration not stated)" reading_unit=% observed_measurement=-0.994
compound=O=C(Cn1nc(-c2ccc(F)cc2)oc1=O)Nc1ccccc1 reading_unit=% observed_measurement=13.9

Request: // query cytotoxicity at 70.5 h value for entry COCC(=O)N1CC(=O)c2sc(Nc3ccc(F)cc3F)nc2C1
Response: 0.281

Request: // query cytotoxicity at 70.5 h value for entry c1cc(N2CCOCC(Cc3ccc4[nH]ccc4c3)C2)ncn1 (configuration not stated)
Response: -8.81
